# Organism: Rattus norvegicus
# test: Open TG-GATES - Regimen: Single
# Type: toxicity, organism-based, Sprague-Dawley
# Design: regimen Single, gender Male, age 6 weeks
# condition summary: in vivo, po, 100 mg/kg, 24 h, tissue Blood, route gavage, dose level High
Plat reference
Express your answer in x10_4/uL, writing the number without its unit.

> print(dat)
                                smiles.data  assay.metric  unit.of.measurement  experimental.value
1             CN(C)CCCN1c2ccccc2CCc2ccccc21          Plat             x10_4/uL               116.4
2         CN(C)CCCN1c2ccccc2CCc2ccc(Cl)cc21          Plat             x10_4/uL               144.2
3  CC1=C(/C=C/C(C)=C/C=C/C(C)=C/CO)C(C)(C)CCC1          Plat             x10_4/uL               117.6

// Plat lookup, key: CN(C)CCN(Cc1cccs1)c1ccccn1 114.4

###

Mono reference
# Organism: Rattus norvegicus
# test: Open TG-GATES - Regimen: Single
# Format: toxicity, organism-based, Sprague-Dawley
# Design: regimen Single, gender Male, age 6 weeks
# condition summary: in vivo, po, 1000 mg/kg, 9 h, tissue Blood, route gavage, dose level High
Express your answer in %, writing the number without its unit.

// solved cases for Mono follow
compound	unit of measurement	experimental value
NC(N)=Nc1nc(CSCCC(N)=NS(N)(=O)=O)cs1 [FAMOTIDINE]	%	2.4
COC1=CC(=O)C[C@@H](C)[C@]12Oc1c(Cl)c(OC)cc(OC)c1C2=O [GRISEOFULVIN]	%	2.2
CC(C)OC(=O)C(C)(C)Oc1ccc(C(=O)c2ccc(Cl)cc2)cc1 [FENOFIBRATE]	%	1.8
CCOC(=O)CCC(=O)O[C@H]1[C@H](O[C@@H]2[C@@H](C)[C@H](O[C@H]3C[C@@](C)(OC)[C@@H](O)[C@H](C)O3)[C@@H](C)C(=O)O[C@H](CC)[C@@](C)(O)[C@H](O)[C@@H](C)C(=O)[C@H](C)C[C@@]2(C)O)O[C@H](C)C[C@@H]1N(C)C [ERYTHROMYCIN ETHYLSUCCINATE]	%	2.6

// Mono lookup, key: COc1ccc2[nH]c([S+]([O-])Cc3ncc(C)c(OC)c3C)nc2c1 (stereo not given) [OMEPRAZOLE] 3.4

###

# Species: Rattus norvegicus
# test: Open TG-GATES - Regimen: Single
# Format: toxicity, organism-based, Sprague-Dawley
# Design: regimen Single, gender Male, age 6 weeks
# condition summary: in vivo, po, 0 mg/kg, 6 h, tissue Blood, route gavage, dose level Control
assay metric: Fbg (mg/dL)
Express your answer in mg/dL, writing the number without its unit.

// solved cases for Fbg follow
> print(dat)
                                   molecule  experimental.value
1  NC(N)=Nc1nc(CSCCC(N)=NS(N)(=O)=O)cs1 [FAMOTIDINE]               218.6
2               NNC(=O)c1ccncc1 [ISONIAZID]                 230
3  CCCNC(=O)NS(=O)(=O)c1ccc(Cl)cc1 [CHLORPROPAMIDE]               308.8
4  COC1=CC(=O)C[C@@H](C)[C@]12Oc1c(Cl)c(OC)cc(OC)c1C2=O [GRISEOFULVIN]               231.8

Now, please, on to the next molecule.
// Fbg lookup, key: CCOc1ccc(NC(=O)CC(C)O)cc1 (centres undefined) [BUCETIN] 303.8
